Data origin, for the record: PubChem BioAssay (NCI)

test system: SK-MEL-5 melanoma; experiment: NCI-60 one-dose screen, 48 h (100 = growth as untreated, 0 = no growth, -100 = all killed); settings: 10 µM unless noted
Compounds without any hit were thinned out: in the full panel of roughly 83,000, 20% have a hit.
// returns not satisfied unless growth is strictly below 70%, in which case satisfied

Bench note: check whether CN(C)CCS(=O)(=O)Nc1cc(-c2ccc3ncnc(Nc4ccc(F)c(Cl)c4)c3c2)cnc1Cl shows growth below 70%
satisfied

Another: CC1(C)N=C(N)N=C(N)N1c1ccc(F)c(C(F)(F)F)c1
satisfied

Moving on to C[C@]12O[C@H]1[C@H](O)c1c(cc(O)c3c1C(=O)c1cccc(O)c1-3)C2=O
not satisfied

Query CC(C)C1(C(C)C)NC(=O)NC1=O next
not satisfied

How about this compound: C/C(=N\N=C1/SCC(=O)N1c1ccccc1)c1ccco1
not satisfied

And for N#Cc1c(N)nc2c(c1N)C(c1ccc(Cl)cc1)C1=C(CCCC1=O)N2c1sc2c(c1C#N)CCCC2 (stereo unspecified) ?
not satisfied

Then C/C(=N/NC(=O)Cn1c2ccccc2c2ccncc21)c1cccs1 ?
not satisfied

Okay, and CCC(CC(C)C)Nc1ccc(NC(CC)CC(C)C)cc1 (stereo unspecified) ?
not satisfied

O=c1nc(N2CCOCC2)oc2c(-c3cccc4ccccc34)cccc12 , same question.
not satisfied

Do the same for COc1ccc(Cn2cc3c(c2-c2cc(OC)c(OC)c(OC)c2)CCc2c(CO)noc2-3)cc1 please
satisfied

Please give the result for COC(=O)c1oc2c(C(C)=O)c(OCCN3CCCCC3)ccc2c1C too.
not satisfied

And O=C(Nc1ccccc1Cl)c1c[nH]c(=O)c(-c2ccc(N3CCCOC4(CC4)C3)cc2)c1 ?
satisfied

Queued: c1coc(CSc2ncnc3nc[nH]c23)c1
not satisfied

Quick one: OCCOCC(F)(F)F
not satisfied

Would you mind doing CC(=O)c1ccc2c(c1)C1C=CCC1[C@H](c1cc3c(cc1Br)OCO3)N2 (stereo partly specified) as well?
satisfied

What about this compound? CC(C)(C)OC(=O)N1CCN(CCn2cc(C(F)(F)F)c3c(Cl)ncnc32)CC1
not satisfied

Same for O=C(Nc1ccc(-n2cc(-c3ccncc3)c(-c3ccc(O)c(Cl)c3)n2)cc1)Nc1cc(C(F)(F)F)cc(C(F)(F)F)c1
satisfied

Request: O=c1c2ccccc2sc2c(NCCN3CCOCC3)nc3ccccc3c12
satisfied

Input COc1ccc(-c2nnc(SCC(=O)Nc3ccc(C(=O)/C=C/c4ccc(Cl)cc4)cc3)o2)cc1OC
satisfied

---

tested on: SK-MEL-28 melanoma; experiment: NCI-60 one-dose screen, 48 h (100 = growth as untreated, 0 = no growth, -100 = all killed); conditions: 10 µM unless noted
About 83,000 compounds went through this panel and 20% of them were active in at least one assay; those are over-represented in the sample as a whole.
Rule: growth of 90% or more gives True; anything lower gives False.

Hi, just wondering whether C#CC(=O)/C=C/CCCCCCC#CC(=O)CCC(=O)C#CCCCCCC/C=C/C(=O)C#C shows growth of 90% or higher.
False

Another molecule to check: CC(Cc1cccc(C(F)(F)F)c1)NCCOC(=O)c1ccccc1 (stereo not given)
True

Try Oc1ccc(Cl)cc1Sc1cc(Cl)ccc1O next.
False

Also O=C(Nc1cccc([N+](=O)[O-])c1)c1ccc2ccccc2c1O ?
True

Param item: CCN(CC)CCNC(=O)c1c(C)[nH]c(/C=C2\C(=O)Nc3cc(NC(=O)NC(=O)c4ccc(OC)cc4F)ccc32)c1C
True
